Reported NanoBRET Fold Response is given for each of the following compounds.
- target: HTR7 (Homo sapiens)
- Construct: purchased Promega (in-house HiBiT-GPCR construct library, NanoBRET)
- Sequence (P34969 whole entry): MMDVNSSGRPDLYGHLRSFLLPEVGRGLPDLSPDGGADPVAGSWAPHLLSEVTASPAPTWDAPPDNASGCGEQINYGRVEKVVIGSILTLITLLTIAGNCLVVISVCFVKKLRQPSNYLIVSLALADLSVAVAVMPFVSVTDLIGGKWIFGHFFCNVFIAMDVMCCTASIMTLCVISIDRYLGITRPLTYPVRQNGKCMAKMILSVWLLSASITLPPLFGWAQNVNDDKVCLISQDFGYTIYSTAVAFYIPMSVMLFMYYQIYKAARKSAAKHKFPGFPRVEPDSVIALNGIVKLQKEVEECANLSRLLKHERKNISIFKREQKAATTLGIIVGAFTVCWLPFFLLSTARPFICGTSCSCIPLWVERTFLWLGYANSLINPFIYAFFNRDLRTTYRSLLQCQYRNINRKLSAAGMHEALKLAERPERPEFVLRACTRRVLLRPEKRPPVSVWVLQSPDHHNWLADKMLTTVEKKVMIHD
- assay.summary: NanoBRET screen HiBiT-HTR7 in HEK293
- Format: binding
- setup.conditions: HTR7; tracer 0.1μM

Illustrative cases are given below, each with its answer.
Ask | Look up and report measured NanoBRET Fold Response (HTR7 (Homo sapiens)) for the following compound: CC(C)N(CC[C@H](c1ccccc1)c1cc(CCNC(=O)CCOCCOCCOCCOCCNC(=O)CCc2ccc3n2[B-](F)(F)[N+]2=C(c4ccc[nH]4)C=CC2=C3)ccc1O)C(C)C [Tolterodine-2-NB590]
Reply | 1.06

Ask | Look up and report measured NanoBRET Fold Response (HTR7 (Homo sapiens)) for the following compound: CCCn1c(=O)c2[nH]c(-c3ccc(OCC(=O)NCCNC(=O)CCOCCNC(=O)c4ccc(CNC(=O)CCc5ccc6n5[B-](F)(F)[N+]5=C(c7ccc[nH]7)C=CC5=C6)cc4)cc3)nc2n(CCC)c1=O [XAC-3-NB590]
Reply | 0.99

Ask | Look up and report measured NanoBRET Fold Response (HTR7 (Homo sapiens)) for the following compound: CC(C)N(CC[C@H](c1ccccc1)c1cc(CCNC(=O)c2ccc(CNC(=O)CCc3ccc4n3[B-](F)(F)[N+]3=C(c5ccc[nH]5)C=CC3=C4)cc2)ccc1O)C(C)C [Tolterodine-BZ-NB590]
Reply | 1.06

Ask | Look up and report measured NanoBRET Fold Response (HTR7 (Homo sapiens)) for the following compound: O=C(CCOCCOCCOCCOCCNC(=O)CCc1ccc2n1[B-](F)(F)[N+]1=C(c3ccc[nH]3)C=CC1=C2)NCCCN1CCN(C2=Nc3ccccc3Oc3ccc(Cl)cc32)CC1 [Loxapine-a-2-NB590]
Reply | 1.07

Ask | Look up and report measured NanoBRET Fold Response (HTR7 (Homo sapiens)) for the following compound: Cc1cc2c(s1)Nc1ccccc1N=C2N1CCN(CCCNC(=O)CCOCCOCCOCCOCCNC(=O)CCc2ccc3n2[B-](F)(F)[N+]2=C(c4ccc[nH]4)C=CC2=C3)CC1 [Olanzapine-a-2-NB590]
Reply | 0.99

Ask | Look up and report measured NanoBRET Fold Response (HTR7 (Homo sapiens)) for the following compound: Cc1nc2n(c(=O)c1CCN1CCC(c3noc4cc(F)ccc34)CC1)CCCC2OC(=O)NCCOCCOCCOCCOCCNC(=O)CCc1ccc2n1[B-](F)(F)[N+]1=C(c3ccc[nH]3)C=CC1=C2 (stereo not shown) [Risperidone-2-NB590]
Reply | 1.06

Could you now look at the following compound, please?
Ask | Look up and report measured NanoBRET Fold Response (HTR7 (Homo sapiens)) for the following compound: N#CN=C(NCCCOc1cccc(CN2CCCCC2)c1)NCCNC(=O)CCOCCOCCOCCOCCNC(=O)CCc1ccc2n1[B-](F)(F)[N+]1=C(c3ccc[nH]3)C=CC1=C2 [Aminopotentidine-2-NB590]
Reply | 1.00

----------
- target: CCR5 (Homo sapiens, UniProt P51681)
- Construct: purchased Promega (in-house HiBiT-GPCR construct library, NanoBRET)
- Sequence (P51681 whole entry): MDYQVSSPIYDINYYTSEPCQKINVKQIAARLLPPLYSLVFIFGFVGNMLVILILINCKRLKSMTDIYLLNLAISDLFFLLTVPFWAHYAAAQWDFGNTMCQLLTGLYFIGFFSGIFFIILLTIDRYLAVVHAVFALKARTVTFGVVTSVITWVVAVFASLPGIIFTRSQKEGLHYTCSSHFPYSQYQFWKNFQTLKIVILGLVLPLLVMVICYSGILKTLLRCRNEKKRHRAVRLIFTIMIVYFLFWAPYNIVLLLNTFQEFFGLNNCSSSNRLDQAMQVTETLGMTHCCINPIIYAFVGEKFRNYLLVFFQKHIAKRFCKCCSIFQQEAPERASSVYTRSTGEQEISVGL
- assay.summary: NanoBRET screen HiBiT-CCR5 in HEK293
- Assay type: binding
- setup.conditions: CCR5; tracer 1μM
Assign class by NanoBRET Fold Response: not lower than 1 means MET; lower than 1 means NOT MET.

Ask | Does NanoBRET Fold Response meet or surpass 1 for O=C(CCOCCOCCOCCOCCNC(=O)CCc1ccc2n1[B-](F)(F)[N+]1=C(c3ccc[nH]3)C=CC1=C2)NCCCN1CCN(C2=Nc3ccccc3Oc3ccc(Cl)cc32)CC1 [Loxapine-a-2-NB590] ?
Reply | MET

***
Ask | Does NanoBRET Fold Response meet or surpass 1 for O=C(CCc1ccc2n1[B-](F)(F)[N+]1=C(c3ccc[nH]3)C=CC1=C2)NCCOCCOCCNC(=O)OCCOCCN1CCN(C2=Nc3ccccc3Sc3ccccc32)CC1 [Quetiapine-a-2-NB590] ?
Reply | NOT MET

Ask | Does NanoBRET Fold Response meet or surpass 1 for N#CN=C(NCCCOc1cccc(CN2CCCCC2)c1)NCCNC(=O)CCOCCOCCOCCOCCNC(=O)CCc1ccc2n1[B-](F)(F)[N+]1=C(c3ccc[nH]3)C=CC1=C2 [Aminopotentidine-2-NB590] ?
Reply | MET

Ask | Does NanoBRET Fold Response meet or surpass 1 for CCCn1c(=O)c2[nH]c(-c3ccc(OCC(=O)NCCNC(=O)CCOCCNC(=O)c4ccc(CNC(=O)CCc5ccc6n5[B-](F)(F)[N+]5=C(c7ccc[nH]7)C=CC5=C6)cc4)cc3)nc2n(CCC)c1=O [XAC-3-NB590] ?
Reply | NOT MET

Ask | Does NanoBRET Fold Response meet or surpass 1 for Cc1nc2n(c(=O)c1CCN1CCC(c3noc4cc(F)ccc34)CC1)CCCC2OC(=O)NCCOCCOCCOCCOCCNC(=O)CCc1ccc2n1[B-](F)(F)[N+]1=C(c3ccc[nH]3)C=CC1=C2 (stereo not drawn) [Risperidone-2-NB590] ?
Reply | NOT MET

----------
- target: PTGDR (Homo sapiens)
- Construct: purchased Promega (in-house HiBiT-GPCR construct library, NanoBRET)
- Sequence (Q13258 whole entry): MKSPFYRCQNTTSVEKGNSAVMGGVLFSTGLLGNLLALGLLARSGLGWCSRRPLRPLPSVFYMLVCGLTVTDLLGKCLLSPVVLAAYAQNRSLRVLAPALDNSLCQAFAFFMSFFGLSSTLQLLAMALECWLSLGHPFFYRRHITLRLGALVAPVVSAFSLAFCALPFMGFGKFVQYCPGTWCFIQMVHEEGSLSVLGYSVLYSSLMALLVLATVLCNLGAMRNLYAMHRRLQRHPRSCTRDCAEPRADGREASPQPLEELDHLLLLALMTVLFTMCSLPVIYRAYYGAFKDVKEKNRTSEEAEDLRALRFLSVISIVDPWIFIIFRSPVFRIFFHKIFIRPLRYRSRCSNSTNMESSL
- assay.summary: NanoBRET screen HiBiT-PTGDR in HEK293
- Type: binding
- setup.conditions: PTGDR; tracer 0.1μM
- Procedure: Each tracer candidate was screened across the entire library of HiBiT-GPCR constructs using NanoBRET as the detection modality. As depicted in Figure 4A, the specificity of interactions was evaluated through decrease in BRET due to competitive displacement of a bound tracer by excess parental compound. Each tracer was analyzed for binding to each HiBiT-GPCR fusion in the absence and in the presence of competing parental compound. […]
Reported NanoBRET Fold Response is given for each of the following molecules.
Note: the reply should be a number with no unit written.

Illustrative cases are given below, each with its answer.
Ask | Indicate its recorded NanoBRET Fold Response; the molecule in question is Cc1cc2c(s1)Nc1ccccc1N=C2N1CCN(CCCNC(=O)CCOCCOCCOCCOCCNC(=O)CCc2ccc3n2[B-](F)(F)[N+]2=C(c4ccc[nH]4)C=CC2=C3)CC1
Reply | 0.95

Ask | Indicate its recorded NanoBRET Fold Response; the molecule in question is CC(C)N(CC[C@H](c1ccccc1)c1cc(CCNC(=O)CCOCCOCCOCCOCCNC(=O)CCc2ccc3n2[B-](F)(F)[N+]2=C(c4ccc[nH]4)C=CC2=C3)ccc1O)C(C)C
Reply | 1.16

***
Ask | Indicate its recorded NanoBRET Fold Response; the molecule in question is O=C(CCc1ccc2n1[B-](F)(F)[N+]1=C(c3ccc[nH]3)C=CC1=C2)NCc1ccc(C(=O)NCCOCCC(=O)N[C@@H]2CC[C@@]3(O)[C@H]4Cc5ccc(O)c6c5[C@@]3(CCN4CC3CC3)[C@H]2O6)cc1 [Naltrexone-3-NB590]
Reply | 0.85

Ask | Indicate its recorded NanoBRET Fold Response; the molecule in question is Cc1nc2n(c(=O)c1CCN1CCC(c3noc4cc(F)ccc34)CC1)CCCC2OC(=O)NCCOCCOCCOCCOCCNC(=O)CCc1ccc2n1[B-](F)(F)[N+]1=C(c3ccc[nH]3)C=CC1=C2 (centres unmarked)
Reply | 1.01

Ask | Indicate its recorded NanoBRET Fold Response; the molecule in question is N#CN=C(NCCCOc1cccc(CN2CCCCC2)c1)NCCNC(=O)CCOCCOCCOCCOCCNC(=O)CCc1ccc2n1[B-](F)(F)[N+]1=C(c3ccc[nH]3)C=CC1=C2
Reply | 0.99

Ask | Indicate its recorded NanoBRET Fold Response; the molecule in question is CCCn1c(=O)c2[nH]c(-c3ccc(OCC(=O)NCCNC(=O)CCOCCNC(=O)c4ccc(CNC(=O)CCc5ccc6n5[B-](F)(F)[N+]5=C(c7ccc[nH]7)C=CC5=C6)cc4)cc3)nc2n(CCC)c1=O
Reply | 1.02

Ask | Indicate its recorded NanoBRET Fold Response; the molecule in question is CC(C)N(CC[C@H](c1ccccc1)c1cc(CCNC(=O)c2ccc(CNC(=O)CCc3ccc4n3[B-](F)(F)[N+]3=C(c5ccc[nH]5)C=CC3=C4)cc2)ccc1O)C(C)C
Reply | 1.03

Ask | Indicate its recorded NanoBRET Fold Response; the molecule in question is O=C(CCOCCOCCOCCOCCNC(=O)CCc1ccc2n1[B-](F)(F)[N+]1=C(c3ccc[nH]3)C=CC1=C2)NCCCN1CCN(C2=Nc3ccccc3Oc3ccc(Cl)cc32)CC1
Reply | 0.93

----------
Reported NanoBRET Fold Response is given for each of the following compounds.
- target: FSHR (Homo sapiens)
- Construct: purchased Promega (in-house HiBiT-GPCR construct library, NanoBRET)
- Sequence (P23945 18-695): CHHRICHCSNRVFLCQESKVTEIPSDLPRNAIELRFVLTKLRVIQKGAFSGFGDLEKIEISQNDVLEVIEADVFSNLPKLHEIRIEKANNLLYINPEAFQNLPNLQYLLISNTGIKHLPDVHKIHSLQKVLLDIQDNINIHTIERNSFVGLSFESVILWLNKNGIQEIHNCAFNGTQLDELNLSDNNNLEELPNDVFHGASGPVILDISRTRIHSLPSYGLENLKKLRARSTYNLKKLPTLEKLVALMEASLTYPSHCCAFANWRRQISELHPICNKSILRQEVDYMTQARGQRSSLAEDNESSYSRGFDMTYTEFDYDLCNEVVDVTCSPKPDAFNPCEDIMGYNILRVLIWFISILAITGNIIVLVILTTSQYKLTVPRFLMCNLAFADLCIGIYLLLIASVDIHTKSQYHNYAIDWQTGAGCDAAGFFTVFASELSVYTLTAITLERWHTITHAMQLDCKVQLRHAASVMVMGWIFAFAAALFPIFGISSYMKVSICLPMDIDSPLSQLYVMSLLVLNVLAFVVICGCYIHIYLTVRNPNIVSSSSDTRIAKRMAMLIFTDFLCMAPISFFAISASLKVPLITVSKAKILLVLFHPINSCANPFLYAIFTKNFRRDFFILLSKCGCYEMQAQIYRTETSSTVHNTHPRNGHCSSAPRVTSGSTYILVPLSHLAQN
- assay.summary: NanoBRET screen HiBiT-FSHR in HEK293
- Assay type: binding
- setup.conditions: FSHR; tracer 0.1μM
Note: the reply should be a number with no unit written.

Illustrative cases are given below, each with its answer.
Ask | Indicate its recorded NanoBRET Fold Response; the compound in question is Cc1nc2n(c(=O)c1CCN1CCC(c3noc4cc(F)ccc34)CC1)CCCC2OC(=O)NCCOCCOCCOCCOCCNC(=O)CCc1ccc2n1[B-](F)(F)[N+]1=C(c3ccc[nH]3)C=CC1=C2 (centres unmarked) [Risperidone-2-NB590]
Reply | 0.95

Ask | Indicate its recorded NanoBRET Fold Response; the compound in question is CCCn1c(=O)c2[nH]c(-c3ccc(OCC(=O)NCCNC(=O)CCOCCNC(=O)c4ccc(CNC(=O)CCc5ccc6n5[B-](F)(F)[N+]5=C(c7ccc[nH]7)C=CC5=C6)cc4)cc3)nc2n(CCC)c1=O [XAC-3-NB590]
Reply | 1.18

Ask | Indicate its recorded NanoBRET Fold Response; the compound in question is O=C(CCc1ccc2n1[B-](F)(F)[N+]1=C(c3ccc[nH]3)C=CC1=C2)NCc1ccc(C(=O)NCCOCCC(=O)N[C@@H]2CC[C@@]3(O)[C@H]4Cc5ccc(O)c6c5[C@@]3(CCN4CC3CC3)[C@H]2O6)cc1 [Naltrexone-3-NB590]
Reply | 0.98

***
Ask | Indicate its recorded NanoBRET Fold Response; the compound in question is O=C(CCOCCOCCOCCOCCNC(=O)CCc1ccc2n1[B-](F)(F)[N+]1=C(c3ccc[nH]3)C=CC1=C2)NCCCN1CCN(C2=Nc3ccccc3Oc3ccc(Cl)cc32)CC1 [Loxapine-a-2-NB590]
Reply | 0.98

Ask | Indicate its recorded NanoBRET Fold Response; the compound in question is O=C(CCc1ccc2n1[B-](F)(F)[N+]1=C(c3ccc[nH]3)C=CC1=C2)NCCOCCOCCNC(=O)OCCOCCN1CCN(C2=Nc3ccccc3Sc3ccccc32)CC1 [Quetiapine-a-2-NB590]
Reply | 0.89
